- Study system: His-PKAC (human wild-type PKAC) (human, UniProt P17612 1-351)
- Test details: ITC
pKd: −log10 of the molar value.
Parameter measured: pKd

Binder	Value reported
EPTLPREFTRRGRRGAVSVDSLAEL [36i peptide (25 aa ARHGAP36 pseudosubstrate motif)]	6.07
